assay_target: T1, CRBN, Q96SW2;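 also: pooled lentiviral library of zinc finger degron-EGFP fusions in mCherry-positive Jurkat cells, FACS-sorted after compound exposure, with degron abundance counted by next-generation sequencing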
T1 chain: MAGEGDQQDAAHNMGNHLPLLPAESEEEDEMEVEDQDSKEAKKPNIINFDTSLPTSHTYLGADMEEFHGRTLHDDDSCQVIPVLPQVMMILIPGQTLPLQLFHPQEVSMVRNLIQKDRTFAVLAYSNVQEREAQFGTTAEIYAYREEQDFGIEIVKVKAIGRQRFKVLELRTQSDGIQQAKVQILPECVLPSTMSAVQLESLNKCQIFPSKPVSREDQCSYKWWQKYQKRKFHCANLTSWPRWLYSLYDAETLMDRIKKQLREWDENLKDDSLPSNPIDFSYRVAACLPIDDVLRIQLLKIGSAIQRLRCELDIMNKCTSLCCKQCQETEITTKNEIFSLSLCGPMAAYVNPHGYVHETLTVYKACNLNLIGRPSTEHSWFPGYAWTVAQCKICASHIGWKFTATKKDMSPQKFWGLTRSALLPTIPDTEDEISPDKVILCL
test: log2 fold change of degron read counts, EGFP-low vs EGFP+ sorted cells (limma voom), compound-induced degradation; higher = more compound-induced degradation of the degron-EGFP fusion; degrons are variants of IKZF1/3 zinc finger 2; compound dose not given here
experimental_parameters: Jurkat; 18 h; compound: compound 22 (5-morpholino-thalidomide)
Whole data set: some 8,300 sequences, median “log2 fold change of degron read counts, EGFP-low vs EGFP+ sorted cells (limma voom), compound-induced degradation” near -1.1, cut for the highest 2% near 3.2. Only a selection was taken, and the highest values are over-represented in it overall.
Response key: true means log2 fold change of degron read counts >= 1; false means log2 fold change of degron read counts < 1.

1) FGCNQCGRAFTQKGNLLRHIKL [46F_47G_49N_50Q_52G_53R_54A_55F_67L_, Q9UKT9] = false
2) FLCDVCGAAFTQKGNLLRHIKL [46F_47L_49D_50V_52G_53A_54A_55F_67L_, Q9UKT9] = false
3) FECPICGREFTQKGNLLRHIKL [46F_47E_49P_50I_52G_53R_54E_55F_67L_, Q9UKT9] = false
4) FACEICGHVFTQKGNLLRHIKL [46F_47A_49E_50I_52G_53H_54V_55F_67L_, Q9UKT9] = false
5) FYCNICGASFTQKGNLLRHIKL [46F_47Y_49N_50I_52G_53A_54S_55F_67L_, Q9UKT9] = true
6) FACNICGASFTQKGNLLRHIKL [46F_47A_49N_50I_52G_53A_54S_55F_67L_, Q9UKT9] = true
7) FHCNICGAQFTQKGNLLRHIKL [46F_47H_49N_50I_52G_53A_54Q_55F_67L_, Q9UKT9] = true
